// values below are reported growth
# Test system: CCRF-CEM leukemia
# Method notes: NCI-60 one-dose screen, 48 h (100 = growth as untreated, 0 = no growth, -100 = all killed)
# Test settings: 10 µM unless noted
This is part of a sample that, as a whole, favours compounds with a hit. Of some 83,000 tested, about 20% had one in any assay. Activity calls are given as the source filed them. How the source made its calls: active means growth percent below 10; inactive means the rest.

[
  {
    "Compound": "CCC(C)[C@@H]1NC(=O)[C@@H]2CCCN2C(=O)[C@H](Cc2ccccc2)NC(=O)[C@@H]2CCCN2C(=O)[C@H](Cc2ccccc2)NC(=O)[C@@H]2CCCN2C(=O)[C@H](Cc2ccccc2)NC1=O (some centres undefined)",
    "growth": "92.7% (inactive)"
  },
  {
    "Compound": "O=C(NCc1cccc(C(F)(F)F)c1)[C@H](CCC(=O)N1CCN(C2CCCCC2)CC1)N1C(=O)[C@@H](N2C(=O)OC[C@@H]2c2ccccc2)[C@H]1/C(Cl)=C/c1ccccc1",
    "growth": "33.9% (inactive)"
  }
]

Request: Find the measured growth of COc1ccc(-n2c(C)nc3c(c(C)nn3-c3ccccc3)c2=O)cc1 and report it.
Result: 8.6% (active)

Request: Dear colleague, please send me the reported growth for Nc1ccc(N2CCOCC2)cc1 when you can.
Result: 124% (inactive)

Request: Fill in growth for record CCN1CCN(Cc2ccc(NC(=O)Nc3nc4ccc(Oc5ccnc(C(=O)NC)c5)cc4s3)cc2C(F)(F)F)CC1
Result: 0.0502% (active)

Request: Given the compound CCCCCCCCCCCCCCCC[N+]1(CC)CCCC1 , write its reported growth.
Result: -67% (active)

Request: Name the recorded growth of the item COc1ccc(-c2cc(-c3cccnc3)nc3sc4c(=O)n(-c5ccc(C)cc5)nnc4c23)cc1OC in your answer.
Result: 104% (inactive)

Request: Return the recorded growth value; entry: Cc1ccccc1CCO
Result: 116% (inactive)

Request: Fill in growth for record CS(=O)(=O)c1c(Nc2ccccc2)n[nH]c1N
Result: 91.1% (inactive)

Request: Input O=C(Nc1nc(-c2ccccc2)cc(-c2ccc(Cl)cc2)n1)c1ccncc1 , output reported growth.
Result: 98.3% (inactive)

Request: # return recorded growth for input C=C(C[n+]1ccccc1)[C@@H]1CC[C@]2(C(=O)OC)CC[C@]3(C)[C@H](CC[C@@H]4[C@@]5(C)CC[C@H](O)C(C)(C)[C@@H]5CC[C@]43C)[C@@H]12
Result: 99% (inactive)

Request: Give the reported growth for this compound. CC[n+]1ccc2c(c1)C(=O)c1nccc3c1c-2nc1ccccc13
Result: 0.574% (active)

Request: Could you please provide reported growth for O=S(=O)(Nc1ccc(Cl)cc1Cl)c1ccc(-c2cnc(C3CC3)o2)cc1 ? Thanks!
Result: 18.6% (inactive)

Request: Answer with reported growth of CCCC(=O)Oc1ccc(/C(=C(/CC)Cc2ccccc2)c2ccc(OCCN3CCCC3)cc2)cc1
Result: 84.4% (inactive)

Request: State, in one line, measured growth of COc1ccc(C(=O)COc2ccc(/C=C3\Oc4ccc(Cl)cc4C3=O)cc2)cc1
Result: 122% (inactive)

Request: Entry CCc1ccccc1NC(=O)c1sc2nc3c(cc2c1N)C(=O)CCC3 needs its growth filled in; supply it.
Result: 13.6% (inactive)

Request: Give the reported growth for this compound. O=C1/C(=C/c2ccc(Cl)cc2Cl)CN(S(=O)(=O)c2ccccc2)C/C1=C\c1ccc(Cl)cc1Cl
Result: -13.2% (active)

Request: Write down growth measured for item Brc1cccc(-c2cc(-c3ccc4c(c3)OCCO4)[nH]n2)c1
Result: 19.5% [25 µM] (inactive)

Request: Consider the compound N=c1c2ccccc2nc2n1CCCCC2 and give its recorded growth.
Result: 92.9% (inactive)
